Data credit: ChEMBL document CHEMBL2218924

Molecular target: BDNF/NT-3 growth factors receptor (Homo sapiens) (UniProt Q16620)
Sequence (Q16620 32-822 limits assumed): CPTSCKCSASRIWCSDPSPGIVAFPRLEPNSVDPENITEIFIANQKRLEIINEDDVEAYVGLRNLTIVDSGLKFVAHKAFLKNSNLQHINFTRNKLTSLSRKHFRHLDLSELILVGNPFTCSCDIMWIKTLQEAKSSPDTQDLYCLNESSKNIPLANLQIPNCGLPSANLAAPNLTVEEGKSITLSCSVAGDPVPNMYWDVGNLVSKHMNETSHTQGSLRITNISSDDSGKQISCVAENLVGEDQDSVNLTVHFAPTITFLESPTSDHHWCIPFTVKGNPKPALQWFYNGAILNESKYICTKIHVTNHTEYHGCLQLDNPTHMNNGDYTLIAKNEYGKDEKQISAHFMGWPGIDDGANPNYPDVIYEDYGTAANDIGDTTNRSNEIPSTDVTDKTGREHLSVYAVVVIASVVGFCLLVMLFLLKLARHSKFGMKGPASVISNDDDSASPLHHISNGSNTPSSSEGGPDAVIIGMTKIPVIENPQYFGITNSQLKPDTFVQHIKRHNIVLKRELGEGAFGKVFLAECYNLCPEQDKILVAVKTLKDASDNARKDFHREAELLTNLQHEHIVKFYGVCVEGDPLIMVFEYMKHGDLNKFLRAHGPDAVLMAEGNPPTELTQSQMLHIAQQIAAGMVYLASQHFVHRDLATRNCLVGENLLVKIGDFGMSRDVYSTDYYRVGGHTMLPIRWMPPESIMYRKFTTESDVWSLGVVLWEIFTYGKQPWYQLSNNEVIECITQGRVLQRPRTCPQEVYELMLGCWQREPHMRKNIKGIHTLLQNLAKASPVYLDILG
Details: at 1 µM
endpoint: residual activity
Report the figure along with its unit, number first.

Problem: Jot down residual activity (BDNF/NT-3 growth factors receptor (Homo sapiens) (UniProt Q16620)) of `CCN(CC)CCNC(=O)c1c(C)[nH]c(/C=C2\C(=O)Nc3ccc(Cl)cc32)c1C` .
Result: 40%

Problem: Name the value of residual activity reported for `O=C1Nc2ccc(Cl)cc2/C1=C/c1cc(Cl)c(O)c(Cl)c1` when tested on BDNF/NT-3 growth factors receptor (Homo sapiens) (UniProt Q16620).
Result: 38%

Problem: Write residual activity of `COc1cc2c(cc1OC)-c1n[nH]c(Nc3cccc(F)c3)c1C2` ; system used: BDNF/NT-3 growth factors receptor (Homo sapiens) (UniProt Q16620)
Result: 56%

Problem: Identify measured residual activity obtained with BDNF/NT-3 growth factors receptor (Homo sapiens) (UniProt Q16620) for `NCCNc1ncc(C(N)=O)c(Nc2cccc(C(F)(F)F)c2)n1` .
Result: 47%

Problem: Give residual activity only, for `O=S(=O)(c1cccc2cnccc12)N1CCCNCC1` , using BDNF/NT-3 growth factors receptor (Homo sapiens) (UniProt Q16620) data.
Result: 83%

Problem: # lookup: BDNF/NT-3 growth factors receptor (Homo sapiens) (UniProt Q16620) residual activity, key = `CN([C@@H](Cc1ccc(OS(=O)(=O)c2cccc3cnccc23)cc1)C(=O)N1CCN(c2ccccc2)CC1)S(=O)(=O)c1cccc2cnccc12`
Result: 79%

Problem: Report measured residual activity on BDNF/NT-3 growth factors receptor (Homo sapiens) (UniProt Q16620); entry: `O=C1NC(=O)c2c1c1c3ccccc3[nH]c1n1cncc21`
Result: 48%

Problem: Tell me its residual activity on BDNF/NT-3 growth factors receptor (Homo sapiens) (UniProt Q16620): `Nc1n[nH]c2nc3ccccc3nc12`
Result: 84%

Problem: Name the value of residual activity reported for `O=C1NC(=O)C(c2cn(CCCn3ccnc3)c3ccccc23)=C1Nc1ccccc1` when tested on BDNF/NT-3 growth factors receptor (Homo sapiens) (UniProt Q16620).
Result: 44%

Problem: Using BDNF/NT-3 growth factors receptor (Homo sapiens) (UniProt Q16620) as the test system, report measured residual activity of `CCCCc1c(-c2ccc(OC)cc2)[nH]c2nccnc12` .
Result: 70%
